target: UniProtKB P51531; test: HiBiT assay for protein degradation, Hela SMARCA2-HiBiT cells (A series); assay type: cell-based; set-up: Hela cells were genetically modified via CRISPR/Cas9 to fuse HiBiT to the carboxy terminus of SMARCA2; host or cells: HeLa (CRISPR/Cas9 HiBiT knock-in); conditions: Hela SMARCA2-HiBiT cells, 24 hours treatment; read-out: SMARC A2 Hela HiBit DC50
Sequence (P51531 whole entry): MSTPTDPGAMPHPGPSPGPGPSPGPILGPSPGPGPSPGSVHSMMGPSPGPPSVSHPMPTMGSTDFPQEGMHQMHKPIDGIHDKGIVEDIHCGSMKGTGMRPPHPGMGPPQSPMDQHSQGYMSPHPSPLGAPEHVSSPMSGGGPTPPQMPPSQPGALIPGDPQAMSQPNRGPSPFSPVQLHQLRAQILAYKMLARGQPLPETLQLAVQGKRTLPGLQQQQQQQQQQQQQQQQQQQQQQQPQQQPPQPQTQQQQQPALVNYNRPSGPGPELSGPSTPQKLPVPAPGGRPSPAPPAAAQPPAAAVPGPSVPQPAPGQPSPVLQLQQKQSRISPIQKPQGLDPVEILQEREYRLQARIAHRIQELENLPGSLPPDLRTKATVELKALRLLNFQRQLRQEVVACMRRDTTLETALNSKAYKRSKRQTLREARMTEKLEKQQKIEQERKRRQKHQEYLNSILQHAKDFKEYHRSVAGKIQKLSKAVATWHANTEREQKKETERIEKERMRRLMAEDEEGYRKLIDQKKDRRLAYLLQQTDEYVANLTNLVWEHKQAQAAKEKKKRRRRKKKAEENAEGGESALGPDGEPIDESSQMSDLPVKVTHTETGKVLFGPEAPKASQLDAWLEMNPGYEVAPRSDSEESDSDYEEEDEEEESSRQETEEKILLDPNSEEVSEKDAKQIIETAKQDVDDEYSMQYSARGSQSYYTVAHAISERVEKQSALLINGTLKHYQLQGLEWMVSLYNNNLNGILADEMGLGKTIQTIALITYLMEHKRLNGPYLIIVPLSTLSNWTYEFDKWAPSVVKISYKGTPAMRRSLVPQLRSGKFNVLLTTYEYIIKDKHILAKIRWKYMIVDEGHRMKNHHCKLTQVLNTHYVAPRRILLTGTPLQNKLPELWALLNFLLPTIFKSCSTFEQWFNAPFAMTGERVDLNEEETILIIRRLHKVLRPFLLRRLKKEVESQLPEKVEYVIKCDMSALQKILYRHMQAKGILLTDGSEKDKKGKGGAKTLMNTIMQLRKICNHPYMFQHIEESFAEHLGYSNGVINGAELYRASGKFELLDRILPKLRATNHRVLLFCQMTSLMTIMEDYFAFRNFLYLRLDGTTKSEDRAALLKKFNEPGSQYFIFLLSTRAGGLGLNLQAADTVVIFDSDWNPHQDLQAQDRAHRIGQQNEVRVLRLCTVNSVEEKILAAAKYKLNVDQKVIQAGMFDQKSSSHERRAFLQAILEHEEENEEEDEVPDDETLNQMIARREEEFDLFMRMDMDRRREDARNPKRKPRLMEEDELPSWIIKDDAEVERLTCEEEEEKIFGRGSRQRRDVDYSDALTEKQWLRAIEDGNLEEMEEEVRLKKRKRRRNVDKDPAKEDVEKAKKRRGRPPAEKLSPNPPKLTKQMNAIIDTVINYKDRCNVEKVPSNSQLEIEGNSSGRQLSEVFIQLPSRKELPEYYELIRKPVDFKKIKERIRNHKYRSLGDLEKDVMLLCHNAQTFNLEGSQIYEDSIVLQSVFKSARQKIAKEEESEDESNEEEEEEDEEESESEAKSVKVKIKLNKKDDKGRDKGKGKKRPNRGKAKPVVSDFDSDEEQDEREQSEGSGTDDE
quantity-name: DC50

These solved cases illustrate the format of a correct answer.
[
  {
    "compound": "Cc1ncsc1-c1ccc([C@H](CC(=O)O)NC(=O)[C@@H]2C[C@@H](O)CN2C(=O)[C@@H](n2cc([C@H]3CC[C@H](CN4CCC(c5ccc6c(c5)-n5c(nc(=O)c7c(Cl)cccc75)C65CCCCC5)CC4)CC3)nn2)C(C)(C)C)cc1 [Compound A146]",
    "quantity-name": "DC50",
    "assay-result": "0.01 to 0.1 µM"
  },
  {
    "compound": "Cc1ncsc1-c1ccc([C@H](C)NC(=O)[C@@H]2C[C@@H](O)CN2C(=O)[C@H](C2CCN(C(=O)CN3CCC(c4ccc5c(c4)-n4c(nc(=O)c6c(Cl)cccc64)C54CCCCC4)CC3)CC2)n2cc(C3CC3)nn2)cc1 [Compound A105]",
    "quantity-name": "DC50",
    "assay-result": "0.1 to 1 µM"
  },
  {
    "compound": "Cc1ncsc1-c1ccc([C@@H](NC(=O)[C@@H]2C[C@@H](O)CN2C(=O)[C@@H](n2cc(C3CC3)nn2)C(C)(C)C)C(=O)N2CCC(c3ccc4c(c3)-n3c(nc(=O)c5c(Br)cccc53)C43CCCCC3)CC2)cc1 [Compound A135]",
    "quantity-name": "DC50",
    "assay-result": "< 0.01 µM"
  }
]

Challenge: Give reported DC50 value for Cc1ncsc1-c1ccc([C@H](C)NC(=O)[C@@H]2C[C@@H](O)CN2C(=O)[C@@H](n2cc(CCCCCCN3CCC(c4ccc5c(c4)C4(CCCCC4)c4nc(=O)c6c(Br)cccc6n4-5)CC3)nn2)C(C)(C)C)cc1 [Compound A58]
Response given: < 0.1 µM

Challenge: Give reported DC50 value for Cc1ncsc1-c1ccc([C@H](CN2CCOCC2)NC(=O)[C@@H]2C[C@@H](O)CN2C(=O)[C@H](C2CCCCC2)n2cc([C@H]3CC[C@H](CN4CCC(c5ccc6c(c5)-n5c(nc(=O)c7c(Cl)cccc75)C6(C)C)CC4)CC3)nn2)cc1 [Compound A125]
Response given: < 0.01 µM

Challenge: Give reported DC50 value for Cc1ncsc1-c1ccc([C@H](CC(=O)N2CCC(CN3CCC(c4ccc5c(c4)-n4c(nc(=O)c6c(Br)cccc64)C54CCCCC4)CC3)CC2)NC(=O)[C@@H]2C[C@@H](O)CN2C(=O)[C@@H](n2cc(C3CC3)nn2)C(C)(C)C)cc1 [Compound A141]
Response given: < 0.01 µM

Challenge: Give reported DC50 value for Cc1ncsc1-c1ccc([C@H](C)NC(=O)[C@@H]2C[C@@H](O)CN2C(=O)[C@@H](n2cc([C@H]3CC[C@H](CN4CCC(c5ccc6c(n5)-n5c(nc(=O)c7c(Cl)cccc75)C65CCCCC5)CC4)CC3)nn2)C(C)(C)C)cc1 [Compound A78]
Response given: 0.01 to 0.1 µM

Challenge: Give reported DC50 value for Cc1ncsc1-c1ccc([C@H](CO)NC(=O)[C@@H]2C[C@@H](O)CN2C(=O)[C@H](C2CCCCC2)n2cc([C@H]3CC[C@H](CN4CCC(c5ccc6c(c5)-n5c(nc(=O)c7c(Cl)cccc75)C65CCCCC5)CC4)CC3)nn2)cc1 [Compound A126]
Response given: < 0.01 µM
